Hey, just so you know, these numbers are from patent US20250250357A1.

target: T1, human MSLN-FL-his protein (human, UniProt Q13421 296-580); assay: competitive ELISA; row Tab021; further: test concentration or dose not given here
T1 construct: made in HEK293E cells, purified on nickel column; also called hMSLN-FL-his; human MSLN full-length protein; not shown: His tag
T1 sequence (Q13421 other isoform, or with tags, fused parts or gaps): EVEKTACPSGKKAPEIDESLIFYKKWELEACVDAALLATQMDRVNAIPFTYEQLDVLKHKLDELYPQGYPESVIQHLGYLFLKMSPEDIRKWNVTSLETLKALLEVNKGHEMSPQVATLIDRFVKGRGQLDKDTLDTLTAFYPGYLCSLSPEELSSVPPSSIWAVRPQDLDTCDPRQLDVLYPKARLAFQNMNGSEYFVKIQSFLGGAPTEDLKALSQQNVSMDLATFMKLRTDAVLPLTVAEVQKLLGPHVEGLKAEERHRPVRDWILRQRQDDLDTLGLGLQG
Reported competition rate by item:
Endpoint Label: competition rate (%)

>>> reported_result("S009-F8-29.1 (antibody, human IgG1, kappa, V domains shown, human-murine chimeric antibody, human IgG1/kappa constant regions) VH: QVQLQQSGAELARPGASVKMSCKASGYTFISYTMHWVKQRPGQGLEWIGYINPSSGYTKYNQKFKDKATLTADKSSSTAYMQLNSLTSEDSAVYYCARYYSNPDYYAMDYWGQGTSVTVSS VL: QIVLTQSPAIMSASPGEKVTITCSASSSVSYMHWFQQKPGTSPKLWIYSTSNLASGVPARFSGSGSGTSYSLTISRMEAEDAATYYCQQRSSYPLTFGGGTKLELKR")
11.1
>>> reported_result("S009-F8-24.14 (antibody, human IgG1, kappa, V domains shown, human-murine chimeric antibody, human IgG1/kappa constant regions) VH: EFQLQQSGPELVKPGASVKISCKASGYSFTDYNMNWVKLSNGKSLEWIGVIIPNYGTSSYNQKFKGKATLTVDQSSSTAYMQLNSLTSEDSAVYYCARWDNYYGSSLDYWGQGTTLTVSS VL: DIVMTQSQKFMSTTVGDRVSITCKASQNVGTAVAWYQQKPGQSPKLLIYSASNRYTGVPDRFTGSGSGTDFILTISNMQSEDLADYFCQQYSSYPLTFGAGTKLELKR")
5.3
